assay_procedure: Brain:plasma concentration ratio in healthy mouse
Type: in vivo
conditions: oral 30 mg/kg once a day for 7 days, 4 h post dose on day 7, read-out: Mouse tissue distribution brain/plasma ratio
property_name: Kp at 4 h

1. Cc1cc(Nc2ncc3c(n2)N(C)CN(c2c(Cl)cccc2Cl)C3=O)ccc1C1CCN(C)CC1 [Example 1]
2. Cc1cc(Nc2ncc3c(n2)N(C)CN(c2c(Cl)cccc2Cl)C3=O)ccc1N1CCNCC1 [CE 6]
Incoming: Which has the smaller recorded Kp at 4 h, 1 or 2 ? // return label of chosen record
Outgoing: 2
(2: 0.16, 1: 0.69)

* * *

assay_procedure: Caco-2 permeability (Papp A-B)
Format: in vitro ADME
conditions: human, pH 6.5, read-out: caco-2 Papp A-B pH 6.5
property_name: Papp A→B (×10⁻⁶ cm/s)

1. Cc1cc(Nc2ncc3c(n2)N(C)CN(c2c(Cl)cccc2Cl)C3=O)ccc1C1=CCN(C)CC1 [CE 178]
2. Cc1cc(Nc2ncc3c(n2)N(C)CN(c2c(Cl)cccc2Cl)C3=O)ccc1C1CCNCC1 [CE 18]
Incoming: Which has the smaller recorded Papp A→B, 1 or 2 ? // return label of chosen record
Outgoing: 2
(2: 0.3 ×10⁻⁶ cm/s, 1: 8.1 ×10⁻⁶ cm/s)

a. Cc1cc(Nc2ncc3c(n2)N(C)CN(c2c(Cl)cccc2Cl)C3=O)ccc1C1CCN(C)CC1 [Example 1]
b. CN1CCC(c2ccc(Nc3ncc4c(n3)N(C)CN(c3c(Cl)cccc3Cl)C4=O)cc2CO)CC1 [CE 165]
Incoming: API: POST /compare with a and b ; response names the item with higher Papp A→B. // return label of chosen record
Outgoing: a

* * *

Test system: pCDC2
assay_procedure: Wee-1 potency in cells (pCDC2 value)
Type: cell-based
pEC50: −log10 of the molar value.
property_name: pEC50

The examples below pair each entry with its known result.
| molecule | pEC50 |
| --- | --- |
| Cc1cc(Nc2ncc3c(n2)N(C)CN(c2c(Cl)cccc2Cl)C3=O)ccc1C1CCNCC1 [CE 18] | 6.65 |
| Cc1cc(Nc2ncc3c(n2)N(C)CN(c2c(Cl)cccc2Cl)C3=O)ccc1C1=CCN(C)CC1 [CE 178] | 6.43 |

A. Cc1cc(Nc2ncc3c(n2)N(C)CN(c2c(C)cccc2Cl)C3=O)ccc1C1CCN(C)CC1 [CE 1]
B. CN1CCC(c2ccc(Nc3ncc4c(n3)N(C)CN(c3c(Cl)cccc3Cl)C4=O)cc2)CC1 [CE 95]
Incoming: Which has the smaller recorded pEC50, A or B ? // return label of chosen record
Outgoing: A

1. Cc1cc(Nc2ncc3c(n2)N(C)CN(c2c(Cl)cccc2Cl)C3=O)ccc1N1CCNCC1 [CE 6]
2. COc1cc(Nc2ncc3c(n2)N(C)CN(c2c(Cl)cccc2Cl)C3=O)ccc1C1CCN(C)CC1 [CE 183]
Incoming: API: POST /compare with 1 and 2 ; response names the item with higher pEC50. // return label of chosen record
Outgoing: 1

* * *

assay_procedure: Rat pharmacokinetics (CL, T1/2, AUC, F %)
Type: in vivo
conditions: male Sprague-Dawley rats, single intravenous dose 1 mg/kg, plasma clearance, read-out: Rat PK CL
property_name: clearance (mL/min/kg)

| compound | clearance [mL/min/kg] |
| --- | --- |
| Cc1cc(Nc2ncc3c(n2)N(C)CN(c2c(Cl)cccc2Cl)C3=O)ccc1N1CCNCC1 [CE 6] | 26 |

P. Cc1cc(Nc2ncc3c(n2)N(C)CN(c2c(Cl)cccc2Cl)C3=O)ccc1C1CCNCC1 [CE 18]
Q. CN1CCC(c2ccc(Nc3ncc4c(n3)N(C)CN(c3c(Cl)cccc3Cl)C4=O)cc2CO)CC1 [CE 165]
R. Cc1cc(Nc2ncc3c(n2)N(C)CN(c2c(Cl)cccc2Cl)C3=O)ccc1C1CCN(C)CC1 [Example 1]
Incoming: Put the items in sequence by clearance, from largest down. State the ranking by listing the labels in the requested order.
Outgoing: P, Q, R
